Just for reference, PubChem BioAssay AID1053118 is where these values come from.

Assay: viability loss in HepG2 hepatoma cells – cell-based, cherry-picks, set 5, cytotoxicity control, dose response (AID 1053118)
Conditions: ATP luminescence, 72 h; series mostly up to 26 µM
Measured potencies and affinities stand elsewhere. Activity calls are given as the source filed them.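 How the source made its calls: active means fitted half-maximal concentration for ATP signal loss at most twice the top valid dose; inconclusive means flat curve between -70 and -30%, or an invalid fit; inactive means flat within ±30%, wrong direction, or potency past limit.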
ASSAY METRIC: outcome

Below: 6 molecules and their reported outcome.
INSERT INTO assay_data (molecule, reading) VALUES
  ('CN1c2ccc(-c3ccccc3)cc2[C@H]2[C@H](CCN2C(=O)CN2CCOCC2)[C@H]1CO', 'inactive'),
  ('CCOC(=O)C1=C(C)Nc2nc3ccccc3n2C1c1ccncc1 (stereo not drawn)', 'inactive'),
  ('Cc1cccc(NC(=O)c2ccc(C3SCC(=O)N3CCc3ccccc3)cc2)c1 (stereo not drawn)', 'inactive'),
  ('Cc1ccc(Nc2nnc(SCc3ccccc3)s2)cc1', 'inactive'),
  ('CN1CCN(C(=O)c2cccc(-c3cnc4cnc(-c5ccccc5Oc5ccccc5)cn34)c2)CC1', 'inactive'),
  ('C[C@H]1CN([C@@H](C)CO)C(=O)c2cc(-c3ccccc3)cnc2O[C@@H]1CN(C)Cc1ccccc1', 'inactive');

Name the reported outcome value associated with the molecule COCC(=O)Nc1ccc2c(c1)C(=O)N(C)[C@H]1CC[C@@H](CC(=O)NCc3ccccc3Cl)O[C@H]1CO2 inactive

Name the reported outcome value associated with the molecule NC(=O)C1=C[C@H](c2coc3ccccc3c2=O)C[C@H](OCCCCO)O1 inactive

Name the reported outcome value associated with the molecule C[C@@H]1CN([C@H](C)CO)C(=O)c2cc(-c3ccccc3)cnc2O[C@H]1CN(C)C(=O)c1cccc(F)c1 inactive

Name the reported outcome value associated with the molecule COC(=O)C[C@H]1CC[C@H]2[C@@H](COc3ccc(NC(=O)Cc4cccs4)cc3C(=O)N2C)O1 inactive

Name the reported outcome value associated with the molecule Cc1oc2ccc(O)cc2c1C(=O)c1ccc(Br)cc1 inactive
